- experimental-system: DWV 3C protease (GST-DWV 3C^pro) (Deformed wing virus, UniProt Q8B3M2)
- Construct: cDNA corresponding to amino acid 2094–2353 of DWV polyprotein; made in house; host or cells: E. coli BL21
- Sequence (Q8B3M2 2094-2353): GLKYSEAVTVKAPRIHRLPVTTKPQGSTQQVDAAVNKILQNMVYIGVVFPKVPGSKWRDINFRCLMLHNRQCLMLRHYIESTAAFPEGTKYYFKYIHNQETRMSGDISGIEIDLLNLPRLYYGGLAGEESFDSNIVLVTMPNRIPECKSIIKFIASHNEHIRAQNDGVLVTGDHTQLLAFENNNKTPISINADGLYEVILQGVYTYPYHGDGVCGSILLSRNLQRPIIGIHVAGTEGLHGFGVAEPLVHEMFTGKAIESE
- test-method-notes: FRET protease assay of GST-DWV 3C^pro with fluorogenic peptide substrate
- Assay type: biochemical
- applied-conditions: compounds tested with or without 2 mM DTT and only effective without DTT; pH 6.0, 33°C, n = 3; read-out: IC50 of DWV 3C^pro inhibitors
Give pIC50 for every item shown.
On this scale, pIC50 is minus log10 of a concentration expressed in M (mol/L).

[in] Recorded pIC50 for CCN(CC)C(=S)SSC(=S)N(CC)CC , please?
[out] 4.45

[in] Would you mind doing O=c1c2ccccc2[se]n1-c1ccccc1 as well?
[out] 5.78

[in] Queued: CCCCCCNC(=O)n1cc(F)c(=O)[nH]c1=O
[out] 3.90
